test_method_notes: RAM signaling pathway blockade in yeast – S. cerevisiae, Pdr1DBD-CYC8 efflux-inhibited sensitized strain, primary screen (AID 1298);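 further: 0% = DMSO untreated cells without growth and 100% = 10 µM 1-NA-PP1 full growth; higher means more yeast growth rescued from 5-FOA killing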
experimental_context: S. cerevisiae cbk1-as DSE1-URA3 strain, 5-FOA growth OD615, 2 d; at 50 µM; active compounds read high
# RAM network inhibition per entry

{"columns": ["compound_string", "RAM network inhibition, %"],
 "data": [
  ["Cn1nc(-c2ccc(Cl)cc2)c2cc(C(=O)NCCN3CCOCC3)sc21", -1.47],
  ["O=C1CCCc2sc3c(c2N1)CCCCC3", 3.61],
  ["COC(=O)c1cn(NC(=O)C2CCCCC2)c(=O)c2ccccc12", 5.38],
  ["O=C(Nc1ccc(Cl)cn1)c1cccc(F)c1", 1.17],
  ["CCN(CC)CCOc1ccc(Br)cc1", 1.1],
  ["COc1ccc(C2=[N+]([O-])C(C)(C)N(O)C2(C)C)cc1", 0.67]
]}
